Values from patent US5395611A

- MEASUREMENT_NOTES: Urinary excretion after i.p. injection (metabolic assay)
- Type: in vivo, mice
- COND: urine, ip, 300 mg/kg; 24 h after i.p. injection, 5.2 mg/mouse; read-out: Urinary excretion of unchanged compound, % of dose
MEASUREMENT_TYPE: dose excreted at 24 h (%)
One number for each entry, in %.

List dose excreted at 24 h for every entry below, keeping the order given.
1. CC(=O)NCCSc1ccc(O)cc1
2. NCCSc1ccc(O)cc1 [4-S-CAP, 4-S-cysteaminylphenol, reference compound]

Key:
1. 20.4
2. 8.8
